The reported numbers originate from patent US20260085127A1.

- assayed system: T1, recombinant human CD39 (in-house product, 38 to 478 aa of Accession No. NM_001776.6) (human, UniProt P49961 38-478)
- T1 construct: also called rhCD39; human CD39-ECD; not shown: Myc and His tags at the C-terminus are named only for the PE-lab
- T1 sequence (looked up): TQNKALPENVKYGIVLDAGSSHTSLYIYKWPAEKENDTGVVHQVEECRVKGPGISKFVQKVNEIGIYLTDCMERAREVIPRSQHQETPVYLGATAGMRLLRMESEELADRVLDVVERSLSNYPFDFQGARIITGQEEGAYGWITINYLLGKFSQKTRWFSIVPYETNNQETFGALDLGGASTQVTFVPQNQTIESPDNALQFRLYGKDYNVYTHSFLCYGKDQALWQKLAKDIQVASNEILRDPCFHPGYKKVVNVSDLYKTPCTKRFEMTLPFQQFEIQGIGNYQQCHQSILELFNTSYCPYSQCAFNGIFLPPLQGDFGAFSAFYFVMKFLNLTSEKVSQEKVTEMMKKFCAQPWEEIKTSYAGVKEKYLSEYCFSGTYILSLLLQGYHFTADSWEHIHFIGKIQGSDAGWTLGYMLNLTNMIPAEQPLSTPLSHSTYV
- protocol notes: SPR Biacore8K, antibody captured on anti-human IgG, antigen as analyte
reported property: Kd (nM)
Answers are plain numbers, in nM.

Use the examples below as a reference point.
| binder | Kd / nM |
| --- | --- |
| 6-3hIG_sc (antibody, scFv-Fc homodimer, anti-CD39; also called scFv-Fc homodimeric antibody of anti-CD39_scFv antibody (humanized) 6-3hIG; not shown: GGGG linker and Fc-LALA (human IgG1 Fc with L234A and L235A)) scFv: QVQLVQSGAELVKPGASVKLSCKASGFSIKDTYVHWVKQAPGKGLEWIGKIDPANVNTKFDPKFQGRVTITADTSTNTAYLQLSSLRSEDTAVYYCALYGYDDDAYYFDYWGQGTLVTVSSGGGGSGGGGSGGGGSGGGGSEIVLTQSPASLSVSPGERATISCRASESVDNYGISFMNWFQQKPGQAPKLLIYAASNQGSGVPARFSGSGSGTDFTLTISSLEPEDFAVYYCQQSKEVPYTFGQGTKLEIK | 0.465 |
| mAnE67_sc (antibody, scFv-Fc homodimer, anti-CD39 (mouse variable regions); also called scFv-Fc homodimeric antibody of anti-CD39_scFv antibody mAnE67; not shown: linker and Fc-LALA (human IgG1 Fc with L234A and L235A)) scFv: EVQLVESGGGLVKPGGSRKLSCAASGFTFSDYGMHWVRQAPEKGLEWVAYISSGSSIIYYADTVKGRFTISRDNAKNTLFLQMTGLRSEDTAMYYCARKDYPYAMDYWGQGTSLAVSSGGGGSGGGGSGGGGSGGGGSSIVMTQTPKFMSTSVGDRVSVTCKASQNVGTNVAWYQQKPGQSPKALIYWASNRFTGVPDRFTGSGSGTDFTLTISNVQSEDLADYFCQQYSSSPYTFGSGTKLEIK | 4.75 |
| 6-3hIG_LA (antibody, V domains shown, IgG1LALA homodimeric antibody; also called IgG1LALA homodimeric antibody of anti-CD39 antibody (humanized) 6-3hIG) VH: QVQLVQSGAELVKPGASVKLSCKASGFSIKDTYVHWVKQAPGKGLEWIGKIDPANVNTKFDPKFQGRVTITADTSTNTAYLQLSSLRSEDTAVYYCALYGYDDDAYYFDYWGQGTLVTVSS VL: EIVLTQSPASLSVSPGERATISCRASESVDNYGISFMNWFQQKPGQAPKLLIYAASNQGSGVPARFSGSGSGTDFTLTISSLEPEDFAVYYCQQSKEVPYTFGQGTKLEIK | 0.629 |
| I67_sc (antibody, scFv-Fc homodimer, anti-CD39 (mouse variable regions); also called scFv-Fc homodimeric antibody of anti-CD39_scFv antibody I67; not shown: linker and Fc-LALA (human IgG1 Fc with L234A and L235A)) scFv: DVQLQESGPSLVQPSQSLSINCTVSGFSLSSYGVHWVRQSPGKGLEWLGVIWRRGSTDYNAAFMSRLSITKDNSKSQVFFKMNRLQADDTATYYCAKGISTATSWFAYWGQGTLVTVSAGGGGSGGGGSGGGGSGGGGSDIVMTQSHKFMSTSVGDRVSVTCKASQNVGTNVAWYQQKPGQSPKALIYSASYRYSGVPDRFTGSGSGTDFTLTISNVQSEDLAEYFCQQYNSYPLTFGAGTKLELK | 1.65 |
| T86_sc (antibody, scFv-Fc homodimer, anti-CD39 (mouse variable regions); also called scFv-Fc homodimeric antibody of anti-CD39_scFv antibody T86; not shown: linker and Fc-LALA (human IgG1 Fc with L234A and L235A)) scFv: QIQLVQSGPELKKPGETVKISCEASGYTFINYGMNWVKQAPGKGLKWMGWINTYTGEPTYADDFKGRFAFSLETSANTAYLQINNLKNEDTATYFCARKGYYGYPNYYAMDYWGQGTSVTVSSGGGGSGGGGSGGGGSGGGGSDIVMTQSQKFMSTSVGDRVSITCKASQNVGTAVAWYQQKPGQSPKLLIYSASNRYTGVPDRFTGSGSGTDFTLTISNMQSEDLADYFCQQYSSYPITFGTGTKLEIK | 4.28 |

Now let's try a different one.
For the binder Tre_291_sc (antibody, scFv-Fc homodimer, anti-CD39 (mouse variable regions); not shown: linker and Fc-LALA (human IgG1 Fc with L234A and L235A)) scFv: QVQLKQSGPGLVQPSQSLSITCTVSGFSLTSYGVHWVRQSPGKGLEWLGVIWRRGSTDYNAAFMSRLSITKDTSKSQVFFKMNSLQTDDTAIYYCAGVRGDAMDYWGQGTSVTVSSGGGGSGGGGSGGGGSGGGGSDIVMTQSHKSMSTSVGDRVSVTCKASQNVGTNVAWYQQKPGQSPKALIYSASYRYSGVPDRFTGSGSGTDFTLTISNVQSEDLAEYFCQQYNSYPLTFGGGTKLEIK , give its measured Kd value. 2.22
